Target: Elastase (Sus scrofa, UniProt P00772)
Construct: purchased Sigma-Aldrich
Sequence (P00772 27-266): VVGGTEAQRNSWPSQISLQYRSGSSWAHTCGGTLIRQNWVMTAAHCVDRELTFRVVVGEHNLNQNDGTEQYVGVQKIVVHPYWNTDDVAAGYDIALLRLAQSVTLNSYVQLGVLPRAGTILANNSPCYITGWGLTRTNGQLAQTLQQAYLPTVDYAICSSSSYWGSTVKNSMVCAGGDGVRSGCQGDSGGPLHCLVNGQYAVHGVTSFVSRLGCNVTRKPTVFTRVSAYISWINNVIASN
Assay: Elastase inhibition, fluorogenic substrate assay (MeOSuc-Ala-Ala-Pro-Val-AMC)
Format: biochemical, Sus domesticus
Conditions: Elastase; inhibitor concentration 1.37174 nM; 40 min pre-incubation
parameterMeasured: Mean (RFU/s)

Ask: Name the recorded Mean (RFU/s) for C/C=C1\NC(=O)[C@@H](NC(=O)[C@@H](NC(=O)[C@H](C)NC(=O)CCC)[C@@H](C)O)[C@@H](C)OC(=O)[C@H](C(C)C)NC(=O)[C@H](Cc2ccc(O)cc2)N(C)C(=O)[C@H](Cc2ccccc2)N2C(=O)[C@H](CC[C@H]2O)NC1=O [Molassamide, molassamide] .
Reply: 0.8127 RFU/s

Ask: Look at this molecule and give its reported Mean (RFU/s). CC=C1NC(=O)[C@@H](NC(=O)[C@@H](NC(=O)[C@@H]2CCCN2C(=O)CCC)[C@@H](C)OC(=O)C2CCCN2C(=O)CCC)[C@@H](C)OC(=O)[C@H](C(C)C)NC(=O)[C@H](Cc2ccc(O)cc2)N(C)C(=O)[C@H](CC(C)C)N2C(=O)[C@H](CC[C@H]2O)NC1=O (stereo partly drawn) [Rivulariapeptolide 1121, rivulariapeptolide 1121]
Reply: 0.7943 RFU/s

Ask: Mean (RFU/s) lookup needed for C/C=C1\NC(=O)[C@@H](NC(=O)[C@@H](NC(=O)[C@H](C)NC(=O)CCC)[C@@H](C)O)[C@@H](C)OC(=O)[C@H](C(C)C)NC(=O)[C@H](Cc2ccc(O)c(Br)c2)N(C)C(=O)[C@H](Cc2ccccc2)N2C(=O)[C@H](CC[C@H]2O)NC1=O [Molassamide B, molassamide B] , thanks.
Reply: 0.7837 RFU/s

---

Biological target: Elastase (Sus scrofa, UniProt P00772)
Construct: purchased Sigma-Aldrich
Test: Elastase inhibition, fluorogenic substrate assay (MeOSuc-Ala-Ala-Pro-Val-AMC)
Format: biochemical, Sus domesticus
Conditions: Elastase; inhibitor concentration 0.457247 nM; 40 min pre-incubation
parameterMeasured: Mean (RFU/s)
# value in RFU/s; strip the unit string

Ask: Report Mean (RFU/s) for C/C=C1\NC(=O)[C@@H](NC(=O)[C@@H](NC(=O)[C@H](C)NC(=O)CCC)[C@@H](C)O)[C@@H](C)OC(=O)[C@H](C(C)C)NC(=O)[C@H](Cc2ccc(O)c(Br)c2)N(C)C(=O)[C@H](Cc2ccccc2)N2C(=O)[C@H](CC[C@H]2O)NC1=O [Molassamide B, molassamide B] please.
Reply: 0.8327

Ask: Item under review: CC=C1NC(=O)[C@@H](NC(=O)[C@@H](NC(=O)[C@@H]2CCCN2C(=O)CCC)[C@@H](C)O)[C@@H](C)OC(=O)[C@H](C(C)C)NC(=O)[C@H](Cc2ccc(O)cc2)N(C)C(=O)[C@H](Cc2ccccc2)N2C(=O)[C@H](CC[C@H]2O)NC1=O [Rivulariapeptolide 988, rivulariapeptolide 988] . Reported Mean (RFU/s)?
Reply: 0.808

Ask: I'd like to know its Mean (RFU/s). The compound in question is CC=C1NC(=O)[C@@H](NC(=O)[C@@H](NC(=O)[C@@H]2CCCN2C(=O)CCC)[C@@H](C)OC(=O)C2CCCN2C(=O)CCC)[C@@H](C)OC(=O)[C@H](C(C)C)NC(=O)[C@H](Cc2ccc(O)cc2)N(C)C(=O)[C@H](CC(C)C)N2C(=O)[C@H](CC[C@H]2O)NC1=O (stereo partly shown) [Rivulariapeptolide 1121, rivulariapeptolide 1121]
Reply: 0.7877

Ask: Could you share which Mean (RFU/s) value was measured for CCCC(=O)N1CCCC1C(=O)NC(C(=O)NC1C(=O)NC(CC(C)C)C(=O)NC2CCC(O)N(C2=O)C(Cc2ccccc2)C(=O)N(C)C(Cc2ccc(O)cc2)C(=O)NC(C(C)C)C(=O)OC1C)C(C)OC(=O)C1CCCN1C(=O)CCC (stereo not shown) [Rivulariapeptolide 1185, rivulariapeptolide 1185] ?
Reply: 0.876
